biological target: Luciferin 4-monooxygenase (Photinus pyralis) (UniProt P08659); assay: FLuc inhibitory activity for the follow-up compounds in a biochemical assay with 1mM D-luciferin; details: purified FLuc, luminescence; series mostly up to 57.5 µM
Sequence (P08659 whole entry, looked up): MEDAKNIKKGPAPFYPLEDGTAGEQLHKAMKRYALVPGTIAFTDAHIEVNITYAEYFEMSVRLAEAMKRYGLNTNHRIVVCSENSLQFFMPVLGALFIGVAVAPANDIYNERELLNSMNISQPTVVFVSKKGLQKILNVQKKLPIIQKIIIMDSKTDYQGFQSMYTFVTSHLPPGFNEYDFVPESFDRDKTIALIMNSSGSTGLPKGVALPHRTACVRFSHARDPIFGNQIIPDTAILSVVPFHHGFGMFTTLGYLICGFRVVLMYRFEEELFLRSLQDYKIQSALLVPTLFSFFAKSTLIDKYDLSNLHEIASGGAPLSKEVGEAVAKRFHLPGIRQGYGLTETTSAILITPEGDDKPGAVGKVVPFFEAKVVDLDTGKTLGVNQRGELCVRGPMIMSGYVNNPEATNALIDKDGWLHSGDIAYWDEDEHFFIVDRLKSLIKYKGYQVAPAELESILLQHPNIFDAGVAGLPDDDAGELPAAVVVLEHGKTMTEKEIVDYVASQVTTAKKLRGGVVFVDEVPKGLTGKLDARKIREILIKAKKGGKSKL
Results filed as inconclusive are left out. Calls of active or inactive are those of the source. The call rests on the fitted dose curve; in most records, active means well fitted inhibition curve with a large enough effect; inconclusive means small, poorly fitted or top-dose-only effect; inactive means flat fitted curve, though single readings scatter.
Return exactly one item of y = active, n = inactive

As a guide, the following entries are already answered.
In [3]: df
Out[3]:
                                   compound                             system_tested  group
0   CCOc1c(Cl)cc(C(=O)Nc2ccccc2C(=O)O)cc1Cl  Luciferin 4-monooxygenase (Photinus pyralis) (UniProt P08659)      y
1  Cc1ccc(NS(=O)(=O)c2ccc(Cl)c(C(=O)Nc3cccc(C(=O)O)c3)c2)cc1  Luciferin 4-monooxygenase (Photinus pyralis) (UniProt P08659)      n
2  Cc1ccc(S(=O)(=O)N2CCOCC2)cc1C(=O)Nc1ccccc1C(=O)O  Luciferin 4-monooxygenase (Photinus pyralis) (UniProt P08659)      n
3  COc1ccc(-c2cccc(C(=O)Nc3cccc(C(=O)O)c3)c2)cc1  Luciferin 4-monooxygenase (Photinus pyralis) (UniProt P08659)      y
4  CCCOc1cccc(C(=O)Nc2ccc(-c3nc4ccccc4s3)c(Cl)c2)c1  Luciferin 4-monooxygenase (Photinus pyralis) (UniProt P08659)      n

// param item: Oc1ccc(-c2nc3ccccc3s2)c(O)c1 ; yields the recorded call
y

And then COc1ccc(C(=O)Nc2ccccc2-c2nc3ccccc3s2)c(OC)c1 , what is it?
n

Subsequent entry: COc1ccc(-c2nc3ccccc3s2)cc1NC(=O)c1ccc(F)cc1
n

Now the compound O=C(Cc1ccc(Cl)cc1)Nc1cccc(C(=O)Nc2ccccc2C(=O)O)c1
y

Another compound to check: CCOc1ccc(C(=O)Nc2cccc(C(=O)O)c2)cc1Cl
y

// query: O=C(Nc1ccccc1C(=O)O)c1ccc(NC(=O)C2CCCO2)cc1 (configuration not stated)
y

Consider next the compound CN(C)S(=O)(=O)c1ccc(C(=O)Nc2cccc(C(=O)O)c2)cc1 in the same way.
n
